- METHOD_SUMMARY: PK analysis: Cmax and AUC from PK models fitted to serum and ISF concentrations
- Format: in vivo, Male Sprague Dawley rats
- REPORTED_CONDITIONS: male, Sprague Dawley, rat, serum, iv, 50 mg/kg, GEN, Rat # 4, dose 50 mg/kg i.v.; read-out: Serum AUC (converted)
ENDPOINT: AUC
Units required after the number.

Data request: Query: AUC; subject: CNC(C)C1CCC(N)C(OC2C(N)CC(N)C(OC3OCC(C)(O)C(NC)C3O)C2O)O1 (stereo not shown) [GEN, gentamicin]
Data returned: 108 µM·h

----------
- METHOD_SUMMARY: PK analysis: Cmax and AUC from PK models fitted to serum and ISF concentrations
- Assay type: in vivo, Male Sprague Dawley rats
- REPORTED_CONDITIONS: male, Sprague Dawley, rat, in vivo, iv, 45 mg/kg, VAN, Rat # 2, dose 45 mg/kg i.v.; read-out: Serum AUC (converted)
ENDPOINT: AUC (µM·h)
Enter your answer as a number in µM·h; do not include the unit.

Data request: Query: AUC; subject: CN[C@H](CC(C)C)C(=O)N[C@H]1C(=O)N[C@@H](CC(N)=O)C(=O)N[C@H]2C(=O)N[C@H]3C(=O)N[C@H](C(=O)N[C@H](C(=O)O)c4cc(O)cc(O)c4-c4cc3ccc4O)[C@H](O)c3ccc(c(Cl)c3)Oc3cc2cc(c3O[C@@H]2O[C@H](CO)[C@@H](O)[C@H](O)[C@H]2O[C@H]2C[C@](C)(N)[C@H](O)[C@H](C)O2)Oc2ccc(cc2Cl)[C@H]1O [VAN, vancomycin]
Data returned: 184

Reference source: paper PMC11538706
